Target: APOL1 G1 (Homo sapiens, UniProt O14791, I384M/S342G)
Sequence (O14791 28-398 S342G/I384M): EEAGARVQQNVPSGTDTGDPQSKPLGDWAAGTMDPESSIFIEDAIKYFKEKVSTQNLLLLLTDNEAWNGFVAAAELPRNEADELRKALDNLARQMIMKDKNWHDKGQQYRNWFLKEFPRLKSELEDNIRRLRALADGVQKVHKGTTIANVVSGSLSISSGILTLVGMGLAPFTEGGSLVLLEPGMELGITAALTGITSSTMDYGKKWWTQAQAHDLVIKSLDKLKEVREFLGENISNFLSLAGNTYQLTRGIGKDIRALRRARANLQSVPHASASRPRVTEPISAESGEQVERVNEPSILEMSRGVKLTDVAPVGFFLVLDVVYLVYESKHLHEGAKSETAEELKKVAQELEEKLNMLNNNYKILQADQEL
Assay: MultiTox-Fluor Multiplex Cytotoxicity Assay, tet-inducible APOL1 G1 T-REx-HEK293 cells
Format: cell-based
Design: expressed in transfected cells; host or cells: T-REx HEK293, clone G1 DC3.25 (pAAVS1-Puro-APOL1 G1)
Conditions: Multi-Tox Assay; APOL1 variant not given; read-out: Multi-Tox Assay Max Activity (%)
Protocol: The MultiTox-Fluor Multiplex Cytotoxicity Assay is a single-reagent-addition, homogeneous, fluorescence assay that measures the number of live and dead cells simultaneously in culture wells. […] The live-cell protease activity is restricted to intact viable cells and is measured using a fluorogenic, cell-permeant peptide glycyl-phenylalanylamino fluorocoumarin (GF-AFC) substrate. […] Assay ready plates from the Global Compound Archive were ordered using template 384_APOL1Cell_DR10n2_50uM_v3. […]
Field: Emax. Provide a value for each of the compounds that follow.
Field: numeric (%). Do not append units.

Query block: Field request: Emax | item: "C[C@H]1C[C@@]2(C[C@@H](c3cn(C)nn3)N1)OCCc1c2sc(C(F)(F)F)c1CO"
Result block: 100

Query block: Field request: Emax | item: CC1CC2(CC(c3cccnc3)N1)OCCc1cc(Cl)sc12 (racemic)
Result block: 99.4

Query block: Field request: Emax | item: CC1CC2(CC(C(C)C)N1)OCCc1cc(Cl)sc12 (mixture of isomers)
Result block: 99.3

Query block: Field request: Emax | item: C[C@@H]1CC2(C[C@H](C)N1)OCCc1cc(Br)sc12 (single isomer, unassigned)
Result block: 99

Query block: Field request: Emax | item: C[C@H]1C[C@@]2(C[C@@H](c3ccnnc3)N1)OCCc1cc(Cl)sc12 (racemic)
Result block: 99.3

Query block: Field request: Emax | item: Cc1cncc([C@@H]2C[C@]3(C[C@H](C)N2)OCCc2cc(Cl)sc23)c1 (racemic)
Result block: 100

Query block: Field request: Emax | item: CC1CC2(CC(C3CCC3)N1)OCCc1cc(Cl)sc12 (mixture of isomers)
Result block: 99.3

Query block: Field request: Emax | item: C[C@H]1C[C@@]2(C[C@@H](c3cnc(-c4ccccc4)o3)N1)OCCc1cc(Cl)sc12 (racemic)
Result block: 99.3

Query block: Field request: Emax | item: COCCn1cc([C@@H]2C[C@]3(C[C@H](C)N2)OCCc2cc(Cl)sc23)cn1 (racemic)
Result block: 100

Query block: Field request: Emax | item: "C[C@H]1C[C@@]2(C[C@@H](c3cnc(-c4cnn(C)c4)nc3)N1)OCCc1cc(Cl)sc12"
Result block: 99.7

Query block: Field request: Emax | item: C[C@H]1C[C@@]2(C[C@@H](c3cn4c(n3)COCC4)N1)OCCc1cc(Cl)sc12 (racemic)
Result block: 99.2

Query block: Field request: Emax | item: CCc1cc2c(s1)C1(CC(C)NC(c3cn(C)nn3)C1)OCC2 (single isomer, unassigned)
Result block: 99.7

Query block: Field request: Emax | item: C[C@H]1C[C@@]2(C[C@@H](c3cnc(N(C)C)nc3)N1)OCCc1cc(Cl)sc12 (racemic)
Result block: 100

Query block: Field request: Emax | item: CC1CC2(CC(C3CCOCC3)N1)OCCc1cc(Cl)sc12 (mixture of isomers)
Result block: 97.7

Query block: Field request: Emax | item: C[C@H]1CC2(C[C@@H](c3cn(C)nn3)N1)OCCc1sc(Cl)cc12 (single isomer, unassigned)
Result block: 99.5

Query block: Field request: Emax | item: C[C@@H]1CC2(C[C@H](C)N1)OCCc1cc(Cl)sc12 (single isomer, unassigned)
Result block: 99

Query block: Field request: Emax | item: Cc1cc([C@@H]2C[C@]3(C[C@H](C)N2)OCCc2cc(Cl)sc23)ccn1 (racemic)
Result block: 99.7

Query block: Field request: Emax | item: C[C@H]1C[C@@]2(C[C@@H](c3cocn3)N1)OCCc1cc(Cl)sc12 (racemic)
Result block: 99.7

Query block: Field request: Emax | item: CC(C)Cc1cc2c(s1)C1(C[C@@H](C)N[C@@H](C)C1)OCC2 (single isomer, unassigned)
Result block: 95

Query block: Field request: Emax | item: C[C@H]1CC2(CC(c3cn(C)cn3)N1)OCC(O)c1cc(Cl)sc12 (single isomer, unassigned)
Result block: 99.7

Query block: Field request: Emax | item: COc1ccc([C@@H]2C[C@]3(C[C@H](C)N2)OCCc2cc(Cl)sc23)cn1 (racemic)
Result block: 99.7

Query block: Field request: Emax | item: "C[C@H]1C[C@@]2(C[C@@H](c3cn(C)nn3)N1)OC[C@@H](O)c1cc(Cl)sc12"
Result block: 99.8

Query block: Field request: Emax | item: Cn1cc(C2CC3(CC(C4CCC4)N2)OCCc2cc(Cl)sc23)nn1 (centres unmarked)
Result block: 97
